# CD4 EC50 (nM); CD69/CD25 on human T cells, plate-coated antibody per record follows
# test target: human CD3 (human, UniProt P07766 23-207; P04234 22-171; P09693 23-182)
# Sequence (P07766 23-207, chain 1 of 3): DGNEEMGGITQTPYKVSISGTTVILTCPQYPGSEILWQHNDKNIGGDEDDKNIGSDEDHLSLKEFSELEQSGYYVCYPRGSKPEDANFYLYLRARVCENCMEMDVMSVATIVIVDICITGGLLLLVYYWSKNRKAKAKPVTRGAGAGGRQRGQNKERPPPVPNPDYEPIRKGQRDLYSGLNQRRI
# Sequence (P04234 22-171, chain 2 of 3): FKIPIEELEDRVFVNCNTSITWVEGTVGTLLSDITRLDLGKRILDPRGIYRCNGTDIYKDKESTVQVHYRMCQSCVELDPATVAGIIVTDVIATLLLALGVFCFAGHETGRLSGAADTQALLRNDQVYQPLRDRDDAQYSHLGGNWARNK
# Sequence (P09693 23-182, chain 3 of 3): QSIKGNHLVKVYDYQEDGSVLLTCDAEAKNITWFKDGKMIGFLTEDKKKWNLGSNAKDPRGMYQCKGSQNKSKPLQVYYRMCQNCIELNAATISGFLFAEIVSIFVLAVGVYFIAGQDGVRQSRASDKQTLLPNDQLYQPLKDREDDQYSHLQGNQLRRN
# protocol notes: cell-based or functional assay
Write it as a number; the unit nM goes unstated.

Reference set, count: 2
- binder: "mAb 114 (antibody, V domains shown) VH: EVQLVESGGGLVKTGGSLRLSCVASGFSFKKAWMNWVRQAPGKGLEWVGRIKRNTDGGPADYAAPVKGRFTLSRDDSKKTLYLQMNSLKTEDTAVYYCTTLDSSSWYVGYYYMDVWGKGTTVTVSS VL: DIQMTQSPSSVSASVGDRVIITCRASQDINNWLAWYLQRPGKAPKLLIYAASSLQSGVPSRFSGSGSGTDFTLTIGSLQPEDFATYYCQQAHSLPITFGQGTRLEIQ"
  readout number: 12.6
- binder: "mAb 158 (antibody, V domains shown) VH: EVQLVESGGGLVQPGRSLRLSCAASGFTFADYTMHWVRQVPGKGLEWVSGISWNSGSVDYADSVKGRFTISRDNAKKTLYLQMNSLRAEDTALYYCAKDSSGYGHYYFYYLDVWGKGTTVTVSS VL: EIVMTQSPATLSVSPGERATLSCRATQSVSSNLAWYQQKPGQAPRLLIYSTSTRATGIPARFSGSRSGTEFTLTISSLQSEDSAVYYCQQYNNWPHFGQGTRLEIK"
  readout number: 6.67

**Query** # input binder: mAb 78 (antibody, V domains shown) VH: EVQLVESGGGLVQPGGSLRLSCAASGFTFSSYWMSWVRQAPGKGLEWVANIKQDGSEKYYVDSVKGRFTISRDNAKNSLYLQMNSLRAEDTAVYYCARDNSPSFYWYFDLWGRGTLVTVSS VL: DIQMTQSPSTLSASVGDRVTITCRASQSLSRWLAWYQQKPGKAPKLLIYKASSLESGVPSRFSGSGSGTEFTLTISSLQPDDFATYYCQQYYTYSRTFGQGTKVEIK ; wanted: its CD4 EC50 (nM); CD69/CD25 on human T cells, plate-coated antibody
**Result** 12.2

**Query** For the binder shown here, mAb 155 (antibody, V domains shown) VH: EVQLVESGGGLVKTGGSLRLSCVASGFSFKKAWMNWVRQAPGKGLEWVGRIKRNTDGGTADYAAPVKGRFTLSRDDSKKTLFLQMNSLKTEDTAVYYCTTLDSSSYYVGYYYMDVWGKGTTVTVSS VL: DIQMTQSPSSVSASVGDRVIITCRASQDINNWLAWYQQKPGKAPKLLIYTASSLQSGVPSRFSGSGSGTDFTLTIGSLQPEDFATYYCQQAHSLPISFGQGTRLDIK , give the reported CD4 EC50 (nM); CD69/CD25 on human T cells, plate-coated antibody.
**Result** 6.25

**Query** Sample mAb 141 (antibody, V domains shown) VH: QVQLVQSGAEVKKPGASVKVSCKASGYTFTSYYIHWVRQAPGQGLDWMGIINPSGGITGYAQKLQGRVTMTRDTSTTTVYMELSSLRSDDTAVYYCARGVRGNYYYYYMDVWGKGTTVTVSS VL: EIVLTQSPDFQSVTPKEKVTITCRASQSIGSKLHWYQQKPDQSPKLLIKYASQSFSGVPSRFSGSGSGTDFNLTINSLEAEDAATFYCHQSSGLPYTFGQGTKLEIK — what was its CD4 EC50 (nM); CD69/CD25 on human T cells, plate-coated antibody?
**Result** 22.1
